- MEASURED TARGET: Anti-CD28 Fab (SEQ ID NOs: 696, 697)
- Sequence (VH, as listed by the source, chain 1 of 2): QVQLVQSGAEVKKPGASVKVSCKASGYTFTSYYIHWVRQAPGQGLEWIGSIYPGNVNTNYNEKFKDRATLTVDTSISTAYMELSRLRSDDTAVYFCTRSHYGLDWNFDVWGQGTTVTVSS
- Sequence (VL, as listed by the source, chain 2 of 2): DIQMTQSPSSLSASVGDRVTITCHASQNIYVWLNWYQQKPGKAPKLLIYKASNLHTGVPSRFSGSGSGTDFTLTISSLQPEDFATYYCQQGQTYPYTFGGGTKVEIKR
- ASSAY TEXT: phage binding ELISA on captured anti-CD28 Fab, wells pre-incubated with CD28 antigen as competitor;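 further: crude clonal phage supernatants added to wells preloaded with CD28 antigen, bound phage read by HRP-conjugated anti-M13 antibody, control wells got blocking buffer alone without CD28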
METRIC: Anti-CD28 Fab signal in the presence of CD28 (phage binding ELISA)
Give bare numbers.

// known answers, use as guide
[[record]]
binder = "YCAGHIPQYLNKCL (Peptide-87 library clone, tested as clonal phage (peptide fused to pIII of the bacteriophage)) [Phage-1320]"
numeric_result = 0.07

[[record]]
binder = "YCEGHMQWYMAKCL (Peptide-87 library clone, tested as clonal phage (peptide fused to pIII of the bacteriophage)) [Phage-1324]"
numeric_result = 0.09

[[record]]
binder = "YCDGHDEQYLMKCL (Peptide-87 library clone, tested as clonal phage (peptide fused to pIII of the bacteriophage)) [Phage-1326]"
numeric_result = 0.07


Parameter requested: Anti-CD28 Fab signal in the presence of CD28 (phage binding ELISA). Apply to each item below.
1. YCAGHTTEYIVKCL (Peptide-87 library clone, tested as clonal phage (peptide fused to pIII of the bacteriophage)) [Phage-1315]
2. YCEGHLDEYLQKCM (Peptide-87 library clone, tested as clonal phage (peptide fused to pIII of the bacteriophage)) [Phage-1314]
3. YCEGHLGLYMKKCL (Peptide-87 library clone, tested as clonal phage (peptide fused to pIII of the bacteriophage)) [Phage-1318]
4. YCEGHVPQYMGKCL (Peptide-87 library clone, tested as clonal phage (peptide fused to pIII of the bacteriophage)) [Phage-1316]

1: 0.05; 2: 0.08; 3: 0.06; 4: 0.08

Any idea what Anti-CD28 Fab signal in the presence of CD28 (phage binding ELISA) was measured for YCEGHAPVYMQKCL (Peptide-87 library clone, tested as clonal phage (peptide fused to pIII of the bacteriophage)) [Phage-1325] ?
0.08
